Where do these numbers come from? They come from PubChem BioAssay AID602289.

Assay: qHTS Assay for Small Molecule Inhibitors of Mitochondrial Division or Activators of Mitochondrial Fusion: Hit Validation in Malachite Green Assay
Conditions: purified GTPase, malachite green phosphate release, A650
The whole screen tested about 2,400 compounds, of which about 40 (2%) were called active. Not shown: some 1% with an inconclusive outcome.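 Rule for the calls: active = inhibition at or above 60%; inconclusive = inhibition from 0% up to below 60%; inactive = no inhibition observed.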 Shown is part of a subset that was picked to be rich in actives.
Returns: one label drawn from Yes for active, No for inactive

[
  {
    "molecule": "CCOC(=O)c1c(C)[nH]c(C)c1C(=O)COC(=O)/C=C/c1ccc(Cl)cc1",
    "assigned.class": "No"
  },
  {
    "molecule": "Cc1c(Cl)c([N+](=O)[O-])nn1Cc1ccc(C(=O)Nc2ccc(Cl)cn2)o1",
    "assigned.class": "No"
  },
  {
    "molecule": "COc1cccc(C(=O)NC2CCN(C(=O)N3c4ccccc4Sc4ccccc43)CC2)c1",
    "assigned.class": "No"
  },
  {
    "molecule": "O=C1C=C(/C=C/C2C=CC=CC2)C[C@@H](c2ccc(Cl)cc2)C1 (some centres undefined)",
    "assigned.class": "No"
  },
  {
    "molecule": "O=C(COc1ccccc1-c1ccccc1)NCc1cccc(Cl)c1",
    "assigned.class": "No"
  }
]

Continue with the molecule presented below.
Lab log entry: `C/C(=N\NC(=O)COc1ccccc1-c1ccccc1)c1ccccn1` — outcome as called in the assay?
Yes

====

Assay: qHTS Assay for Small Molecule Inhibitors of Mitochondrial Division or Activators of Mitochondrial Fusion: Hit Validation in Malachite Green Assay
Details: purified GTPase, malachite green phosphate release, A650
Among all 2,400 compounds or so, about 40 (2%) were called active. About 1% were inconclusive and are not listed.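 Rule for the calls: active = inhibition at or above 60%; inconclusive = inhibition from 0% up to below 60%; inactive = no inhibition observed.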 Shown is part of a subset that was picked to be rich in actives.
Please answer using one outcome listed in 1 = active, 0 = inactive

# example entries with known answers
[
  {
    "item.smiles": "O=C(Nc1ccccc1N1CCCC1)c1ccc2ccccc2c1",
    "assigned.class": 0
  },
  {
    "item.smiles": "Cc1nc(CS(=O)(=O)c2ccc(Cl)cc2)cc(Sc2ccccc2Cl)n1",
    "assigned.class": 0
  },
  {
    "item.smiles": "COc1c(C)cc(Br)cc1C(=O)Nc1cccc(NC(=O)c2ccco2)c1",
    "assigned.class": 0
  }
]

How was `Clc1ccc(C[n+]2csc3ccccc32)cc1` classified in this test?
1

What classification did `COc1cccc(-c2nnc(NC(=O)c3ccc4ncsc4c3)o2)c1` end up with in this test?
0

Which outcome was entered for the compound `N#C/C(=C\c1cn[nH]c1-c1ccc(Cl)cc1)C(=O)NCc1ccccc1` in this test?
0

====

Experiment: qHTS Assay for Small Molecule Inhibitors of Mitochondrial Division or Activators of Mitochondrial Fusion: Hit Validation in Malachite Green Assay
Details: purified GTPase, malachite green phosphate release, A650
In all, about 2,400 compounds went through this assay and about 40 (2%) were called active. Roughly 1% stayed inconclusive and do not appear here.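 Rule for the calls: active = inhibition at or above 60%; inconclusive = inhibition from 0% up to below 60%; inactive = no inhibition observed.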 Only a selection was taken, and actives are over-represented in it overall.
Parameter call: string, one of y (active), n (inactive)

[
  {
    "compound": "CCC(C)c1ccc(N(CC(=O)NC(C)(C)C)C(=O)CNC(=O)c2cccs2)cc1 (stereo not given)",
    "assigned.class": "n"
  },
  {
    "compound": "COc1ccc(-c2cc(C(=O)OC(C)C(=O)Nc3c(C)n(C)n(-c4ccccc4)c3=O)c3ccccc3n2)cc1 (stereo not given)",
    "assigned.class": "n"
  },
  {
    "compound": "COc1ccc(/C=C/C(=O)N2CCCc3ccccc32)c(OC)c1",
    "assigned.class": "n"
  },
  {
    "compound": "CC(C)c1nnc(NC(=O)C2c3ccccc3Oc3ccccc32)s1",
    "assigned.class": "y"
  },
  {
    "compound": "CCc1nnc(NC(=O)C2c3ccccc3Oc3ccccc32)s1",
    "assigned.class": "n"
  },
  {
    "compound": "CCCCNC(=O)N1CCN(C(c2ccccc2)c2ccccc2)CC1",
    "assigned.class": "n"
  },
  {
    "compound": "COc1ccccc1NC(=O)N(Cc1ccccc1)c1ccccn1",
    "assigned.class": "n"
  },
  {
    "compound": "O=C(/C=C/c1ccc(Cl)cc1)N(c1ccccn1)C1CCCCC1",
    "assigned.class": "n"
  }
]

Check the results log: what was the call for COc1ccc(-c2cc(=O)oc3c(C)c(OC(C)C(C)=O)ccc23)cc1 (stereo not given) ?
n

Record lookup: outcome of this test for `Cn1c2ccccc2c2c(C(=O)N3CCN(c4ccccc4)CC3)cn(C3CCCC3)c(=O)c21` ?
n

====

Assay: qHTS Assay for Small Molecule Inhibitors of Mitochondrial Division or Activators of Mitochondrial Fusion: Hit Validation in Malachite Green Assay
Settings: purified GTPase, malachite green phosphate release, A650
About 40 (2%) of roughly 2,400 compounds were called active. Not shown: some 1% with an inconclusive outcome.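 How the source made its calls: active means inhibition at or above 60%; inconclusive means inhibition from 0% up to below 60%; inactive means no inhibition observed.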 The list comes from a sample in which actives are over-represented; it also holds close analogues and randomly drawn compounds.
Answer with one of the outcomes given here: 1 = active, -1 = inactive

[
  {
    "compound": "Fc1cccc(CNc2ncnc3ccc(-c4ccc5c(c4)OCO5)cc23)c1",
    "assigned.class": -1
  },
  {
    "compound": "CCC(CC)C(=O)Nc1cc(C(=O)OC)ccc1C(=O)OC",
    "assigned.class": -1
  },
  {
    "compound": "c1ccc(NCc2nc3ccccc3n2CCOc2ccccc2)cc1",
    "assigned.class": -1
  },
  {
    "compound": "O=C(Oc1c(Cl)cc(Cl)c2cccnc12)c1ccco1",
    "assigned.class": 1
  },
  {
    "compound": "C=CCc1c(C)nc(-c2ccccc2)nc1Nc1ccc(O)cc1",
    "assigned.class": -1
  },
  {
    "compound": "CCCCC(c1nnnn1CC1CCCO1)N1CCN(c2nc3ccccc3s2)CC1 (stereo not drawn)",
    "assigned.class": -1
  }
]

Here's the next entry for you.
How was `Oc1c(Cl)cc(Cl)c2cccnc12` classified in this test?
1

====

Assay: qHTS Assay for Small Molecule Inhibitors of Mitochondrial Division or Activators of Mitochondrial Fusion: Hit Validation in Malachite Green Assay
Conditions: purified GTPase, malachite green phosphate release, A650
About 40 (2%) of roughly 2,400 compounds were called active. Not shown: some 1% with an inconclusive outcome.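 The calls were made as follows: active = inhibition at or above 60%; inconclusive = inhibition from 0% up to below 60%; inactive = no inhibition observed.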 Many of the other results were omitted from the sample, so actives are more common in it than they were.
Write down the outcome that applies. Available outcomes: label 1 (active), label 0 (inactive)

Worked examples follow.
[
  {
    "item.smiles": "Cc1cccn2c(=O)c(/C=C(\\C#N)C(=O)NCc3ccco3)c(N3CCCCC3)nc12",
    "assigned.class": "label 0"
  },
  {
    "item.smiles": "O=C1/C(=C\\c2ccc(O)c(O)c2)SC(=S)N1Cc1ccccc1",
    "assigned.class": "label 1"
  },
  {
    "item.smiles": "Cn1c(=O)c2c(nc(Oc3ccccc3Cl)n2C)n(C)c1=O",
    "assigned.class": "label 0"
  },
  {
    "item.smiles": "Cc1ccc(-n2nnnc2SCC(=O)c2cc(C)n(-c3cc(C)on3)c2C)c(C)c1",
    "assigned.class": "label 0"
  }
]

Okay, now this molecule:
# outcome recorded in this test, key = `c1ccc(C(c2ccccc2)N2CCN(Cc3nnnn3C3CCCC3)CC2)cc1`
label 0

====

Assay: qHTS Assay for Small Molecule Inhibitors of Mitochondrial Division or Activators of Mitochondrial Fusion: Hit Validation in Malachite Green Assay
Details: purified GTPase, malachite green phosphate release, A650
The campaign covered roughly 2,400 compounds. About 40 (2%) were called active. Not shown: some 1% with an inconclusive outcome.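 How the source made its calls: active means inhibition at or above 60%; inconclusive means inhibition from 0% up to below 60%; inactive means no inhibition observed.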 What follows is part of a selection rich in actives, with near analogues and random picks from the rest.
Would you mind answering with one of these outcomes? active, inactive

Worked examples follow.
[
  {
    "molecule": "CN(C(=O)C(Cl)Cl)c1ccc(OC(=O)c2ccco2)cc1",
    "assigned.class": "inactive"
  },
  {
    "molecule": "CC(Oc1cccc(Cl)c1)C(=O)Nc1nc(-c2ccccn2)cs1 (stereo unspecified)",
    "assigned.class": "active"
  }
]

Query: recorded result category for `CCCCCn1c(SCCC(C)C)nc2c1c(=O)[nH]c(=O)n2C` in this test
active

Just curious, what result did CC(Oc1cccc(Cl)c1)C(=O)Nc1cc(Cl)ccc1N1CCOCC1 (stereo unspecified) get here?
inactive

For `Cc1ccc(S(=O)(=O)NC23CC4CC(CC(C4)C2)C3)cc1` , what call appears in the results of this test?
inactive

How was `COc1cccc(COc2ccc3c(C)cc(=O)oc3c2)c1` classified in this test?
inactive

Entry `O=C(COc1ccc(F)cc1Br)Nc1ccccc1N1CCOCC1` : call = ?
inactive

Could you please tell me the result logged for `CCCCSc1nnc(-c2ccc(C)cc2)c2ccccc12` in this assay?
inactive

Called result for C=C(C)Cn1c(N2CC(C)CC(C)C2)nc2c1c(=O)[nH]c(=O)n2C (stereo unspecified)
inactive

Write down the call the test reported for this molecule. Item: `O=C(Nc1ccc(Cl)cc1C(=O)Nc1ccccn1)c1ccco1`
inactive

For `COc1ccc2ccccc2c1C(=O)/C=C\c1ccoc1` , what call appears in the results of this test?
inactive

Answer briefly: the call reported for `CCCCc1c(C)nc2ccccc2c1SCCC#N` in this assay.
active

Please state the recorded outcome for this molecule: `O=C(/C=C/c1ccco1)c1ccc(NC(=O)C23CC4CC(CC(C4)C2)C3)cc1`
active

Per the records of this test, what outcome belongs to `CCCCN(CC)c1nc(-c2ccncc2)nc2ccccc12` ?
inactive

What did the test return for `COc1cccc(COc2ccc3ccc(=O)oc3c2)c1` ?
inactive

# outcome recorded in this test, key = CCOC(=O)c1c(NC(=O)COC(=O)Cn2cnc3ccccc32)sc2c1CCC(C)C2 (stereo unspecified)
inactive
